Reference source for all entries: PubChem BioAssay (EPA / NIEHS)

Assay: CCTE_Padilla_ZF_Score.Swim_bladder: CCTE's 144 Hour Post-fertilization zebrafish Assay Score for Swim Bladder Malformation, Padilla Lab (AID 2284408)
Procedure: CCTE_Padilla_ZF_Phenotype_Score is a whole embryo, multiplexed assay using zebrafish ova exposed for 144 hours post fertilization on a 96-well plate.CCTE_Padilla_ZF_Score.Swim_bladder is one of one assay component(s) measured or calculated from the CCTE_Padilla_ZF_Phenotype_Score assay. […] This assay endpoint, CCTE_Padilla_ZF_Score.Swim_bladder, was analyzed in the positive analysis fitting direction relative to DMSO as the negative control and baseline of activity. […]
Calls of active or inactive are those of the source. The calls were made as follows: active = hit-call score of the fitted dose curve at least 0.9, where 1 is the maximum; inactive = score below 0.9.
Outcome codes: TRUE (active), FALSE (inactive)

1. OCC(F)(F)C(F)(F)C(F)(F)C(F)(F)C(F)(F)C(F)(F)C(F)(F)C(F)(F)C(F)(F)C(F)(F)C(F)(F)F : FALSE
2. FCOC(C(F)(F)F)C(F)(F)F : FALSE
3. FC(F)=C(F)C(F)(F)C(F)(F)C(F)(F)C(F)F : FALSE
4. FC(F)(F)N1C(F)(F)C(F)(F)OC(F)(F)C1(F)F : FALSE
5. O=C(O)CCC(F)(F)C(F)(F)C(F)(F)C(F)(F)C(F)(F)F : TRUE
6. C=CC(F)(F)C(F)(F)C(F)(F)C(F)(F)F : FALSE
7. O=CC(F)(F)C(F)(F)C(F)(F)C(F)F : FALSE
8. FC(OC(F)(F)C(F)(F)C(F)(F)F)C(F)(F)F (stereo not given) : FALSE
9. O=C(OC(=O)C(F)(F)C(F)(F)F)C(F)(F)C(F)(F)F : FALSE
10. O=C(CC(=O)C(F)(F)C(F)(F)C(F)(F)F)c1cccs1 : TRUE
11. O=P(O)(O)CCC(F)(F)C(F)(F)C(F)(F)C(F)(F)C(F)(F)C(F)(F)C(F)(F)C(F)(F)F : TRUE
12. O=C1OC(=O)C(F)(F)C1(F)F : FALSE
13. O=C(O)C(F)(F)OC(F)(F)C(F)(F)OC(F)(F)C(F)(F)OC(F)(F)C(F)(F)C(F)(F)C(F)(F)F : TRUE
14. FC(F)(F)C1(F)C(F)(F)C(F)(F)C(F)(F)C1(F)F : FALSE
15. O=C(F)C(F)(F)C(F)(F)C(F)(F)C(=O)F : FALSE
